test system: HeLa; assay: Cytotoxicity against human HeLa cells; type: functional, cell-based
readout: IC50

Request: # get_value(readout='IC50', item= CCCCCCCCCCCCCCCCCCCCCCCC(=O)N1CCc2c([nH]c3ccc(O)cc23)[C@H]1Cc1ccc(O)cc1 )
Result: < 2 µM

Request: # get_value(readout='IC50', item= COc1ccccc1-c1c(-c2ccccc2)ncc2[nH]c3ccccc3c12 )
Result: 20.8 µM

Request: # get_value(readout='IC50', item= CC(=O)N1N=C(c2ccco2)CC1c1cc2c([nH]c3ccccc32)c(-c2ccc(C(F)(F)F)cc2)n1 (centres undefined) )
Result: 1.94 µM

Request: # get_value(readout='IC50', item= O=C(/C=C/c1cc2c([nH]c3ccccc32)c(-c2ccc(C(F)(F)F)cc2)n1)c1ccco1 )
Result: 1.89 µM

###

test system: HCT-116; assay: Cytotoxicity against human HCT-116 cells incubated for 48 hrs by neutral red dye based assay; type: functional, cell-based; conditions: HCT-116, 48 h
readout: IC50 (µg/mL)
Just the number in µg/mL, nothing appended.

Request: # get_value(readout='IC50', item= Nc1nccc(-c2nccc3c2[nH]c2ccccc23)n1 )
Result: 0.42

Request: # get_value(readout='IC50', item= Nc1nccc(C2=NCCc3c2[nH]c2ccccc32)n1 )
Result: 0.59

Request: # get_value(readout='IC50', item= CNC(=O)CCCc1nccc2c1[nH]c1ccccc12 )
Result: 0.67

Request: # get_value(readout='IC50', item= O=C1NCCc2c1[nH]c1ccccc21 )
Result: 7.45

###

test system: HUVEC; test: Cytotoxicity against human HUVEC cells; type: functional, cell-based
readout: pIC50
Just so you know, pIC50 here is -log10 of the concentration in molar units; reply with that number alone.

Request: # get_value(readout='pIC50', item= O=c1cc2c3ccccc3n3c(=O)ccc([nH]1)c23 )
Result: 6.30

Request: # get_value(readout='pIC50', item= COc1cc2c3ccccc3n3c(=O)ccc(n1)c23 )
Result: 6.30

###

test system: K562; experiment: Cytotoxicity against human K562 cells; format: functional, cell-based
readout: IC50 (µM)
Just the number in µM, nothing appended.

Request: # get_value(readout='IC50', item= CC[C@H](C)[C@H](NC(=O)[C@H](Cc1c[nH]c2ccccc12)NC(=O)[C@H](Cc1c[nH]c2ccccc12)NC(=O)c1cc2c([nH]c3ccccc32)c(-c2ccc(O)c(OC)c2)n1)C(=O)OCc1ccccc1 )
Result: 12

###

tested on: 786-0; assay: Antitumor activity against human 786-0 cells assessed as inhibition of cell growth measured after 48 hrs by spectrophotometric analysis; type: functional, cell-based; details: 786-0, 48 h
readout: IC50 (nM)
Just the number in nM, nothing appended.

Request: # get_value(readout='IC50', item= c1ccc(-c2nc(-c3nnc4snnn34)cc3c2[nH]c2ccccc23)cc1 )
Result: 80

###

test system: A549; assay: Antiproliferative activity against human A549 cells incubated for 72 hrs by MTT assay; assay type: functional, cell-based; details: A549, 72 h
readout: IC50 (nM)
Just the number in nM, nothing appended.

Request: Provide the documented IC50 with A549 as the system for CCCn1c2cc(OCCC(C)C)ccc2c2cc[n+](Cc3ccccn3)c(C)c21
Result: 200

###

system: T98G; experiment: Antiproliferative activity against human T98G cells incubated for 72 hrs by MTT assay; format: functional, cell-based
readout: pIC50
Just so you know, pIC50 here is -log10 of the concentration in molar units; reply with that number alone.

Request: # get_value(readout='pIC50', item= CCCn1c2cc(OCCC(C)C)ccc2c2cc[n+](Cc3ccccn3)c(C)c21 )
Result: 6.70

###

Task for the reader: assign each of the following molecules its reported IC50.
system: SGC-7901; assay: Cytotoxicity against human SGC-7901 cells measured after 48 hrs by MTT assay; format: functional, cell-based; settings: SGC-7901, 48 h
Just the number in µM, nothing appended.

Request: # get_value(readout='IC50', item= O=C(OCCCCCOC(=O)c1cc2c3ccccc3n(Cc3ccccc3F)c2cn1)c1cc2c3ccccc3n(Cc3ccccc3F)c2cn1 )
Result: 5.61

Request: # get_value(readout='IC50', item= Cc1ccccc1Cn1c2ccccc2c2cc(C(=O)OCCCCCOC(=O)c3cc4c5ccccc5n(Cc5ccccc5C)c4cn3)ncc21 )
Result: 6.93

###

system: A2780; assay: Cytotoxicity against human A2780 cells measured after 24 hrs by MTT assay; type: functional, cell-based; settings: A2780, 24 h
readout: IC50 (nM)
Just the number in nM, nothing appended.

Request: # get_value(readout='IC50', item= COc1ccc(C(=O)n2c3ccccc3c3ccnc(-c4cc(-c5ccc(-c6nc7ccccc7s6)cc5)no4)c32)c(OC)c1OC )
Result: 190

Request: # get_value(readout='IC50', item= COc1cc2nc(-c3nc(-c4nccc5c4[nH]c4ccccc45)cs3)[nH]c2cc1OC )
Result: 1230

###

Task for the reader: assign each of the following compounds its reported IC50.
system: A549; experiment: Cytotoxicity against human A549 cells incubated for 48 hrs by neutral red dye based assay; assay type: functional, cell-based; details: A549, 48 h
Just the number in µg/mL, nothing appended.

Request: # get_value(readout='IC50', item= Nc1nccc(-c2nccc3c2[nH]c2ccccc23)n1 [ANNOMONTINE] )
Result: 1.09

Request: # get_value(readout='IC50', item= O=C1NCCc2c1[nH]c1ccccc21 )
Result: 10.1

Request: # get_value(readout='IC50', item= Nc1nccc(C2=NCCc3c2[nH]c2ccccc32)n1 )
Result: 1.92

Request: # get_value(readout='IC50', item= CNC(=O)CCCc1nccc2c1[nH]c1ccccc12 )
Result: 2.15

###

tested on: HaCaT; assay: Antitumor activity against human HaCaT cells assessed as inhibition of cell growth measured after 48 hrs by spectrophotometric analysis; type: functional, cell-based
readout: IC50 (nM)
Just the number in nM, nothing appended.

Request: # get_value(readout='IC50', item= c1ccc(-c2nc(-c3nnc4snnn34)cc3c2[nH]c2ccccc23)cc1 )
Result: 80

###

tested on: NCI-H460; experiment: Antiproliferative activity against human NCI-H460 cells assessed as cell viability incubated for 48 hrs by MTT assay; assay type: functional, cell-based; conditions: NCI-H460, 48 h
readout: IC50 (µM)
Just the number in µM, nothing appended.

Request: # get_value(readout='IC50', item= Cc1nccc2c3ccccc3n(CCCCn3c4ccccc4c4ccnc(C)c43)c12 )
Result: 9.58

###

system: MCF7; experiment: Cytotoxicity against human MCF7 cells measured after 24 hrs by MTT assay; type: functional, cell-based; conditions: MCF7, 24 h
Task for the reader: assign each of the following compounds its reported pIC50.
Just so you know, pIC50 here is -log10 of the concentration in molar units; reply with that number alone.

Request: # get_value(readout='pIC50', item= COc1cc2nc(-c3nc(-c4nccc5c4[nH]c4ccccc45)cs3)[nH]c2cc1OC )
Result: 7.04

Request: # get_value(readout='pIC50', item= COc1ccc(C(=O)n2c3ccccc3c3ccnc(-c4cc(-c5ccc(-c6nc7ccccc7s6)cc5)no4)c32)c(OC)c1OC )
Result: 7.00

###

Task for the reader: assign each of the following compounds its reported pIC50.
test system: A549; assay: Cytotoxicity against human A549 cells measured after 48 hrs by MTT assay; format: functional, cell-based; details: A549, 48 h
Just so you know, pIC50 here is -log10 of the concentration in molar units; reply with that number alone.

Request: Provide the documented pIC50 with A549 as the system for O=C(OCCCCCOC(=O)c1cc2c3ccccc3n(Cc3ccccc3F)c2cn1)c1cc2c3ccccc3n(Cc3ccccc3F)c2cn1
Result: 5.25

Request: Provide the documented pIC50 with A549 as the system for Cc1ccccc1Cn1c2ccccc2c2cc(C(=O)OCCCCCOC(=O)c3cc4c5ccccc5n(Cc5ccccc5C)c4cn3)ncc21
Result: 5.16

###

Task for the reader: assign each of the following molecules its reported IC50.
tested on: A549; assay: Cytotoxicity against human A549 cells; assay type: functional, cell-based
Just the number in nM, nothing appended.

Request: # get_value(readout='IC50', item= CC(=O)N1N=C(c2ccco2)CC1c1cc2c([nH]c3ccccc32)c(-c2ccc(C(F)(F)F)cc2)n1 (stereo not drawn) )
Result: 1940

Request: # get_value(readout='IC50', item= COc1ccc(CCNC(=O)c2cc3c([nH]c4ccccc43)c(C(C)=O)n2)cc1 [MARINACARBOLINE A] )
Result: 24400

Request: # get_value(readout='IC50', item= O=C(/C=C/c1cc2c([nH]c3ccccc32)c(-c2ccc(C(F)(F)F)cc2)n1)c1ccco1 )
Result: 1890

Request: # get_value(readout='IC50', item= COc1ccc(OC)c(-c2nc(/C=C3/C(=O)N(Cc4ccccc4)c4ccc(Br)cc43)cc3c2[nH]c2ccccc23)c1 )
Result: 1430

Request: # get_value(readout='IC50', item= COc1ccc(-c2nc(C(=O)Nc3nc4ccc([N+](=O)[O-])cc4s3)cc3c2[nH]c2ccccc23)cc1 )
Result: 1460

Request: # get_value(readout='IC50', item= CC(=O)c1nc(C(=O)NCCc2ccccc2)cc2c1[nH]c1ccccc12 )
Result: 37400

Request: # get_value(readout='IC50', item= CC(=O)c1nc(C(=O)NCCc2c[nH]c3ccccc23)cc2c1[nH]c1ccccc12 [MARINACARBOLINE D] )
Result: 15000
